From: patent US10407432B2

Target: BRD3 (1) (Homo sapiens, UniProt Q15059)
Construct: purchased Discoverx (BROMOscan service)
Sequence (Q15059 34-140 limits assumed): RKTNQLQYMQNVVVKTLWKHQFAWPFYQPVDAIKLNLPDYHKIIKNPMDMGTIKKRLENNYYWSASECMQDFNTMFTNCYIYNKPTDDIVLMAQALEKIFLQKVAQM
Assay: BROMOscan assay (DiscoverX) BRD3(1)
Format: binding
experimental_endpoint: Kd (µM)

{"columns": ["smiles_notation", "target_or_system", "experimental_endpoint", "experimental_value"],
 "data": [
  ["COc1nnc2ccc(N3CCC(c4ccc(OCCN5CCN(C)C(=O)[C@H]5C)cc4)CC3)nn12", "BRD3 (1) (Homo sapiens, UniProt Q15059)", "Kd", 0.064]
]}

a. COc1nnc2ccc(N3CCC(c4ccc(OCCCN5CCN(C)C(=O)[C@H]5C)cc4)CC3)nn12
b. COc1nnc2ccc(N3CCC(c4ccc(OCCN5[C@H](C)CN(C(C)=O)C[C@@H]5C)cc4)CC3)nn12
Query: # query: argmin of Kd over a and b Return value: the label identifying the chosen record.
Response: b
(b: 0.057 µM, a: 0.11 µM)

###

Target: BRD4 (2) (Homo sapiens, UniProt O60885)
Construct: purchased Discoverx (BROMOscan service)
Assay: BROMOscan assay (DiscoverX) BRD4(2)
Assay type: binding
experimental_endpoint: Kd (µM)

Reference set (2 entries):
{"columns": ["smiles_notation", "experimental_endpoint", "unit", "experimental_value"],
 "data": [
  ["COc1nnc2ccc(N3CCC(c4ccc(OCCCN5[C@H](C)CN(C(C)=O)C[C@@H]5C)cc4)CC3)nn12", "Kd", "µM", 0.25],
  ["COc1nnc2ccc(N3CCC(c4ccc(OCCN5[C@H](C)CN(C(C)=O)C[C@@H]5C)cc4)CC3)nn12", "Kd", "µM", 0.29]
]}

1. COc1nnc2ccc(N3CCC(c4ccc(OCCCN5CCN(C)C(=O)[C@H]5C)cc4)CC3)nn12
2. COc1nnc2ccc(N3CCC(c4ccc(OCCN5CCN(C)C(=O)[C@H]5C)cc4)CC3)nn12
Query: Problem: Given the entries 1 and 2 , determine which has the lower reported Kd. Please respond with the label that marks your chosen entry.
Response: 2
(2: 0.13 µM, 1: 0.34 µM)

###

Target: BRDT (1) (Homo sapiens, UniProt Q58F21)
Construct: purchased Discoverx (BROMOscan service)
Test: BROMOscan assay (DiscoverX) BRDT(1)
Format: binding
experimental_endpoint: Kd (µM)

{"columns": ["smiles_notation", "target_or_system", "unit", "experimental_value"],
 "data": [
  ["COc1nnc2ccc(N3CCC(c4ccc(OCCCN5CCN(C)C(=O)[C@H]5C)cc4)CC3)nn12", "BRDT (1) (Homo sapiens, UniProt Q58F21)", "µM", 0.093]
]}

I. COc1nnc2ccc(N3CCC(c4ccc(OCCN5CCN(C)C(=O)[C@H]5C)cc4)CC3)nn12
II. COc1nnc2ccc(N3CCC(c4ccc(OCCN5[C@H](C)CN(C(C)=O)C[C@@H]5C)cc4)CC3)nn12
Query: Smaller Kd value? Options are I and II Provide the label of your selected option as the answer.
Response: II
(II: 0.035 µM, I: 0.095 µM)

###

Target: BRD4 (1) (Homo sapiens, UniProt O60885)
Experiment: Alpha-Screen assay, BRD4 BD1
Format: binding
Set-up: 6His-TEV-BRD4, amino acid residues 42-169, corresponding to the BD1 domain
Details: 6His-TEV-BRD4 residues 42-169 (BD1), H4K5,8,12,16(Ac)4-biotin peptide
experimental_endpoint: IC50 (µM)

{"columns": ["molecule", "experimental_value"],
 "data": [
  ["COc1nnc2ccc(N3CCC(c4ccc(OCCCN5[C@H](C)CN(C(C)=O)C[C@@H]5C)cc4)CC3)nn12 [Example 4]", 0.14]
]}

1. COc1nnc2ccc(N3CCC(c4ccc(OCCN5[C@H](C)CN(C(C)=O)C[C@@H]5C)cc4)CC3)nn12 [Example 2]
2. COc1nnc2ccc(N3CCC(c4ccc(OCCCN5CCN(C)C(=O)[C@H]5C)cc4)CC3)nn12 [Example 3]
3. COc1nnc2ccc(N3CCC(c4ccc(OCCN5CCN(C)C(=O)[C@H]5C)cc4)CC3)nn12 [Example 1]
Query: Order the entries by their reported IC50, beginning at the minimum. Give the labels in the order specified.
Response: 1, 3, 2
(1: 0.035 µM, 3: 0.12 µM, 2: 0.3 µM)

###

Assay: physchem
experimental_endpoint: pKa

Query: What does the record list as pKa for COc1nnc2ccc(N3CCC(c4ccc(OCCN5CCN(C)C(=O)[C@H]5C)cc4)CC3)nn12 [Example 1] ?
Response: < 1

###

Target: BRD2 (2) (Homo sapiens, UniProt P25440)
Construct: purchased Discoverx (BROMOscan service)
Sequence (P25440 344-453 limits assumed): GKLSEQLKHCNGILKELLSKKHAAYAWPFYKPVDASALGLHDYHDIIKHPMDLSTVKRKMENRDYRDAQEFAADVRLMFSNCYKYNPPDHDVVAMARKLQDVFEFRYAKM
Test: BROMOscan assay (DiscoverX) BRD2(2)
Type: binding
experimental_endpoint: Kd (µM)

{"columns": ["molecule", "unit", "Kd"],
 "data": [
  ["COc1nnc2ccc(N3CCC(c4ccc(OCCN5[C@H](C)CN(C(C)=O)C[C@@H]5C)cc4)CC3)nn12 [Example 2]", "µM", 0.35]
]}

a. COc1nnc2ccc(N3CCC(c4ccc(OCCN5CCN(C)C(=O)[C@H]5C)cc4)CC3)nn12 [Example 1]
b. COc1nnc2ccc(N3CCC(c4ccc(OCCCN5CCN(C)C(=O)[C@H]5C)cc4)CC3)nn12 [Example 3]
Query: Lab note: check whether a or b shows the higher recorded Kd. Which one? Tell me its label.
Response: b
(b: 0.53 µM, a: 0.28 µM)

###

Assay: pKa determination
experimental_endpoint: pKa
Quick one: just the number, no unit, thanks!

Query: GET /values?readout=pKa&item= O=C(O)c1ccc2cc(O)ccc2c1 [6-hydroxy-2-naphthoic acid]
Response: 4.3

###

Molecular target: BRD4 (1) (Homo sapiens)
Assay: BROMOscan assay (DiscoverX) BRD4(1)
Type: binding
Set-up: purchased Discoverx (BROMOscan service)
experimental_endpoint: Kd (µM)

{"columns": ["compound", "unit", "experimental_value"],
 "data": [
  ["COc1nnc2ccc(N3CCC(c4ccc(OCCCN5[C@H](C)CN(C(C)=O)C[C@@H]5C)cc4)CC3)nn12 [Example 4]", "µM", 0.057]
]}

a. COc1nnc2ccc(N3CCC(c4ccc(OCCN5CCN(C)C(=O)[C@H]5C)cc4)CC3)nn12 [Example 1]
b. COc1nnc2ccc(N3CCC(c4ccc(OCCN5[C@H](C)CN(C(C)=O)C[C@@H]5C)cc4)CC3)nn12 [Example 2]
c. COc1nnc2ccc(N3CCC(c4ccc(OCCCN5CCN(C)C(=O)[C@H]5C)cc4)CC3)nn12 [Example 3]
Query: Task field, ranking: reported Kd, descending order. Answer by listing the labels in the requested order.
Response: c, a, b
(c: 0.11 µM, a: 0.047 µM, b: 0.026 µM)
